- assay.summary: Rodent pharmacokinetics: oral bioavailability and clearance, plasma
- Assay type: in vivo, mouse
- experimental.conditions: IV, 5 mg/kg; male CD1 mouse plasma; free base
experimental.endpoint: Tmax (min)
Your answer should be a plain number; it is taken to be in min.

**Query** Can you look up the measured Tmax of COC1CN(Cc2cnc3oc4c(N5CCOCC5)nc(-c5c(F)ccc6[nH]ccc56)nc4c3c2)C1 for me?
**Result** 4.8

----------
- assay.summary: Rodent pharmacokinetics: oral bioavailability and clearance, plasma
- Type: in vivo, mouse
- experimental.conditions: PO, 10 mg/kg; male CD1 mouse plasma; free base
- Description: The following protocol was used to determine oral bioavailability and clearance. The results are shown below. • Species=male mouse; • Strain=CD1, • n=3 male mice per time point per route; • Terminal blood sampling at 8 time points (5 min, 10 min, 0.5 hr, 1 hr, 3 hr, 6 hr, 8 hr and, 24 hr); • Collection of plasma, bio-analysis and report of pharmacokinetic parameters. Formulation: 10% DMSO, 15% Cremophor, 75% Saline Dosing: 10 mg/kg P.O. and 5 mg/kg I.V. […]
experimental.endpoint: AUC(0-t)
State the result as a value with its unit after it.

**Query** Can you look up the measured AUC(0-t) of COC1CN(Cc2cnc3oc4c(N5CCOCC5)nc(-c5c(F)ccc6[nH]ccc56)nc4c3c2)C1 for me?
**Result** 2780 ng·h/mL

Taken from patent US10377764B2.
